Cited source: patent EP4752140A1

- Experimental details: Single-dose PK study in rats
- Type: in vivo
- Cond: rat; male SD rats, oral gavage 3 mg/kg, plasma; read-out: Maximum plasma concentration Cmax
Parameter Cmax: see the listing below.
The response must be a number in ng/mL with no trailing unit.

Sample records with Cmax:
COc1cc(C)c2[nH]ccc2c1CN1CC[C@H](C=C(F)F)C[C@H]1c1ccc(C(=O)O)cc1 [Compound 32-P1]: 1290
[2H]C([2H])([2H])Oc1cc(C)c2[nH]ccc2c1CN1CC[C@H](C=C(F)F)C[C@H]1c1ccc(C(=O)O)cc1 [Compound 39-P1]: 1280

// below: Cmax requested for another compound
Query block: Quick one: Cmax for CCO[C@H]1CCN(Cc2c(OC)cc(C)c3[nH]ccc23)[C@H](c2ccc(C(=O)O)cc2)C1 [Comparative Example 1, reference compound] ?
Result block: 714
